- target.or.test.system: hERG channel (Homo sapiens)
- Construct: expressed in transfected cells; host or cells: CHO (CHOhERG)
- Sequence (Q12809 whole entry): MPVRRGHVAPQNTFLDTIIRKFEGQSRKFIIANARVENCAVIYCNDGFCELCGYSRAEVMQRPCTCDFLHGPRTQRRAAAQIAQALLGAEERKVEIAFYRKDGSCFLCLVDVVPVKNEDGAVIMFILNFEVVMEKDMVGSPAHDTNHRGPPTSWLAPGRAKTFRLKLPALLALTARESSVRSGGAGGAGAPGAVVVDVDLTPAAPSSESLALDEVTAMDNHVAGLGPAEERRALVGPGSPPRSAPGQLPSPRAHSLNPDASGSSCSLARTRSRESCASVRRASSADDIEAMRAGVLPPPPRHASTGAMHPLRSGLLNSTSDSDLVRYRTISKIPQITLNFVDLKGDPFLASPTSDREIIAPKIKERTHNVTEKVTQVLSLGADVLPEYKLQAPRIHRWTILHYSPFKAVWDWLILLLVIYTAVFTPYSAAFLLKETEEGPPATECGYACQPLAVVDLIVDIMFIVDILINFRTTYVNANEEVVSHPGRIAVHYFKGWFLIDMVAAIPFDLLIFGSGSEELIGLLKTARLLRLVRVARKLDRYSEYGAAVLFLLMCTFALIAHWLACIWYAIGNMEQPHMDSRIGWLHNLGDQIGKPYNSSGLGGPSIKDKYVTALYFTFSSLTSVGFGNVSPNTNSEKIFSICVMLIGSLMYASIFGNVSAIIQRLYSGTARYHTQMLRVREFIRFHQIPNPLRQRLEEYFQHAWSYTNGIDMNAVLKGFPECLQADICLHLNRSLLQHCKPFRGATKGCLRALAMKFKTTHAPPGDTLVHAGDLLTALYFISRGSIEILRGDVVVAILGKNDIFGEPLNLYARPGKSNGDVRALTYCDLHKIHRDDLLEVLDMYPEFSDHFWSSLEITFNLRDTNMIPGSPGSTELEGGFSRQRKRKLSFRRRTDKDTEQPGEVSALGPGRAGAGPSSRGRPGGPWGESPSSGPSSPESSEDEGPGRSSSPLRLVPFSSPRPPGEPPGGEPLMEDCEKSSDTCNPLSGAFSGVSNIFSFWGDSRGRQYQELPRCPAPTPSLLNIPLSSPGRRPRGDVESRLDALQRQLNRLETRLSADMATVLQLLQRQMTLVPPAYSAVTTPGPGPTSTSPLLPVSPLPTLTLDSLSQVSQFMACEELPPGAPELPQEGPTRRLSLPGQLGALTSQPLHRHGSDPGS
- assay.comment: hERG channel inhibition assay (patch-clamp, CHOhERG cells)
- Assay type: cell-based
- condition.notes: human, CHO cells stably expressing hERG (CHOhERG); CHOhERG cells, whole-cell patch-clamp
- Description: The hERG K^+ channels were cloned in humans and stably expressed in a CHO (Chinese hamster ovary) cell line. CHOhERG cells were used for patch-clamp (voltage-clamp, whole-cell) experiments. […] After the cells were stabilized for a few minutes, the amplitude and kinetics of IKhERG were recorded at a stimulation frequency of 0.1 Hz (6 bpm). […] The amplitude and kinetics of IKhERG are recorded in each concentration of the drug which were compared to the control values (taken as 100%). […]

{"molecule": "C[C@H]1CN(c2ccnc3c2cnn3C)Cc2ccc(N3CC4(CCNCC4)CC3=O)cc21", "unit.text": "µM", "result.operator": ">", "IC20": 10}
{"molecule": "Cc1cc(N2Cc3ccc(OC[C@@H]4CNCCN4)cc3[C@@H](C)C2)c2cnn(C)c2n1", "unit.text": "µM", "result.operator": "=", "IC20": 8.5}
{"molecule": "C[C@H]1CN(c2ccnc3c2cnn3C)Cc2ccc(O[C@@H]3C[C@H]4CNCCN4C3)cc21", "unit.text": "µM", "result.operator": ">", "IC20": 10}
{"molecule": "C[C@H]1CN(c2ccnc3c2cnn3C)Cc2ccc(N3C[C@@]4(CCNC4)CC3=O)cc21 (single isomer, unassigned)", "unit.text": "µM", "result.operator": ">", "IC20": 10}
{"molecule": "CO[C@H]1CN(c2cc3c(cn2)CN(c2cc(C)nc4c2cnn4C)C[C@@H]3C)CC[C@@H]1N", "unit.text": "µM", "result.operator": "=", "IC20": 6.9}
{"molecule": "Cc1cc(N2Cc3ccc(OC[C@H]4CNCCN4)cc3[C@@H](C)C2)c2cnn(C)c2n1", "unit.text": "µM", "result.operator": "=", "IC20": 6.5}
{"molecule": "Cc1cc(N2Cc3cnc(N4CC[C@@H](N)[C@H](F)C4)cc3[C@@H](C)C2)c2cnn(C)c2n1", "unit.text": "µM", "result.operator": ">", "IC20": 10}

---

Measured Clearance of Human microsome of individual entries
- assay.comment: Human microsome stability assay
- Type: in vitro ADME
- condition.notes: 1 μM test compound, 0.5 mg/mL liver microsomal protein, 37° C., pH 7.4

{"compound": "Cc1cc(N2Cc3ccc(N4CC5(CNCCO5)C4)cc3[C@@H](C)C2)c2cnn(C)c2n1", "Clearance of Human microsome, mL/min/kg": 7.2}
{"compound": "C[C@H]1CN(c2ccnc3c2cnn3C)Cc2ccc(OC[C@@H]3CNCCN3C=O)cc21", "Clearance of Human microsome, mL/min/kg": 10.4}
{"compound": "C[C@H]1CN(c2ccnc3c2cnn3C)Cc2ccc(N3CCC(N4CC[C@@H](N)[C@H](O)C4)CC3)cc21", "Clearance of Human microsome, mL/min/kg": 9.7}
{"compound": "CO[C@@H]1CN(c2ccc3c(c2)[C@@H](C)CN(c2ccnc4c2cnn4C)C3)C[C@H]1N", "Clearance of Human microsome, mL/min/kg": 10.2}
{"compound": "C[C@H]1CN(c2ccnc3c2cnn3C)Cc2ccc(OC[C@H]3CNCCN3)cc21", "Clearance of Human microsome, mL/min/kg": 10.5}
{"compound": "C[C@H]1CN(c2ccnc3c2cnn3C)Cc2ccc(OC[C@@H]3CNCCN3)cc21", "Clearance of Human microsome, mL/min/kg": 7.7}
{"compound": "C[C@H]1CN(c2ccnc3c2cnn3C)Cc2ccc(N3C[C@@]4(CCNC4)CC3=O)cc21 (single isomer, unassigned)", "Clearance of Human microsome, mL/min/kg": 7.0}
{"compound": "CO[C@H]1CN(c2cc3c(cn2)CN(c2cc(C)nc4c2cnn4C)C[C@@H]3C)CC[C@@H]1N", "Clearance of Human microsome, mL/min/kg": 6.3}
{"compound": "Cc1cc(N2CCc3c(c(C)nn3CC34CCC(NC(=O)[C@@H]5COCCN5)(CC3)CC4)C2)c2cnn(C)c2n1 [Example N8, reference compound]", "Clearance of Human microsome, mL/min/kg": 16.3}
{"compound": "C[C@H]1CN(c2ccnc3c2cnn3C)Cc2ccc(O[C@@H]3C[C@H]4CNCCN4C3)cc21", "Clearance of Human microsome, mL/min/kg": 6.8}
{"compound": "Cc1cc(N2Cc3ccc(N4CC5(CNCCO5)C4)nc3[C@@H](C)C2)c2cnn(C)c2n1", "Clearance of Human microsome, mL/min/kg": 9.8}
{"compound": "Cc1cc(N2Cc3ccc(N4CCNCC4)nc3[C@@H](C)C2)c2cnn(C)c2n1", "Clearance of Human microsome, mL/min/kg": 9.8}
{"compound": "Cc1cc(N2Cc3cnc(O[C@@H]4C[C@H]5CNCCN5C4)cc3[C@@H](C)C2)c2cnn(C)c2n1", "Clearance of Human microsome, mL/min/kg": 6.2}
{"compound": "Cc1cc(N2Cc3cnc(N4CCNCC4)cc3[C@@H](C)C2)c2cnn(C)c2n1", "Clearance of Human microsome, mL/min/kg": 9.2}
{"compound": "C[C@H]1CN(c2ccnc3c2cnn3C)Cc2ccc(N3C4CCC3CNC4)cc21", "Clearance of Human microsome, mL/min/kg": 6.2}
{"compound": "C[C@H]1CN(c2ccnc3c2cnn3C)Cc2ccc(N3CC4(CCNCC4)OC3=O)cc21", "Clearance of Human microsome, mL/min/kg": 6.2}
{"compound": "CC1CN(c2ccc3c(c2)[C@@H](C)CN(c2ccnc4c2cnn4C)C3)CCN1 (stereo partly drawn)", "Clearance of Human microsome, mL/min/kg": 6.2}
{"compound": "Cc1cc(N2Cc3ccc(N4CCOC5(CNC5)C4)nc3[C@@H](C)C2)c2cnn(C)c2n1", "Clearance of Human microsome, mL/min/kg": 8.1}
{"compound": "C[C@H]1CN(c2ccnc3c2cnn3C)Cc2ccc(N3CC4(CCNC4)CC3=O)cc21 (stereo partly drawn)", "Clearance of Human microsome, mL/min/kg": 6.2}
{"compound": "C[C@H]1CN(c2ccnc3c2cnn3C)Cc2ccc(N3CCN[C@@H](CO)C3)cc21", "Clearance of Human microsome, mL/min/kg": 6.2}
{"compound": "C[C@H]1CN(c2ccnc3c2cnn3C)Cc2ccc(N3C[C@@H](N)[C@](C)(O)C3)cc21", "Clearance of Human microsome, mL/min/kg": 6.2}
